Origin of values: ChEMBL document CHEMBL1201862

# Tested on: MOLT-4
# Assay method text: NCI tumour cell line growth inhibition, 48 h
Calls of active or inactive are those of the source. No stated cut-off is given here; in the data, active = GI50 up to about 1.1 µM and inactive = higher.
Permitted responses: active, inactive

Reference set, count: 10
CCCCCCCCCCCCCCCCc1c(C(=O)OC)[nH]c(=S)[nH]c1=O :: inactive
O=C1CCC2CCc3cccc4oc1c2c34 (configuration not stated) :: inactive
Cc1ccc(C(=O)C2CC3(CCC2(O)c2ccc(C)cc2)CC(=O)Nc2ccccc2C3=O)cc1 (configuration not stated) :: inactive
Cc1nc2c(o1)/C(=N\c1ccccc1)c1nc(C)oc1/C2=N/c1ccccc1 :: inactive
CSC1CC2C(CC1(C)SC)C2(C)C (configuration not stated) :: inactive
CN(C)C(=O)CO/N=C1/C(=C2/C(=O)Nc3ccccc32)Nc2ccccc21 :: inactive
CN1C/C(=C\C=C\c2ccccc2)C(=O)/C(=C/C=C/c2ccccc2)C1 :: inactive
CCOC(=O)C(NC(=O)CC)(Nc1cc(C)on1)C(F)(F)F (configuration not stated) :: inactive
Nc1ncnc2c1sc1nc3ccccc3n12 :: inactive
O=C1c2cccc3cc([N+](=O)[O-])cc(c23)C(=O)N1Nc1ccc([N+](=O)[O-])cc1[N+](=O)[O-] :: inactive

Incoming: Please state the recorded outcome for this compound: CC12CCC(=O)N1c1cncnc1N2 (configuration not stated)
Outgoing: inactive

Incoming: Another: CC(C)CC(C#CCCOC(=O)c1ccccc1)OC(=O)c1ccccc1 (configuration not stated)
Outgoing: inactive

Incoming: Another: `[N-]=[N+]=Nc1ccc2c(c1)Sc1ccccc1N2CCCCN1CCN(C(=O)CCNC(=O)Cc2ccc(C(=O)c3ccccc3)cc2)CC1`
Outgoing: inactive

Incoming: Another: [N-]=[N+]=NC(CCl)c1cn([C@H]2C[C@H](O)[C@@H](CO)O2)c(=O)[nH]c1=O (some centres not stated)
Outgoing: inactive

Incoming: Another: `CO[C@]12CCC(=O)N1C=Cc1c2[nH]c2ccccc12`
Outgoing: inactive

Incoming: Another: COC(=O)C1[C@H](C(=O)OC)C1(Br)CBr (some centres not stated)
Outgoing: inactive

Incoming: Another: `C/C(=N\Nc1nc2ccccc2n1C)c1ccncn1`
Outgoing: active

Incoming: Another: `O=C(NNC(=O)c1ccccc1Cl)c1ccccc1O`
Outgoing: inactive

Incoming: Another: `Cc1ccc(/C=N/Nc2nncc3ccccc23)s1`
Outgoing: inactive

Incoming: Another: `O=C(Nc1nc(C23CC4CC(CC(C4)C2)C3)cs1)c1cc2cc(Cl)ccc2oc1=O`
Outgoing: inactive

Incoming: Another: CC1(C)Oc2ccc3ccc(=O)oc3c2C(O)C1O (configuration not stated)
Outgoing: inactive

Incoming: Another: `CCOC(=O)c1c(SCCCN2CCCCC2)n(-c2ccccc2)c(=S)n(-c2ccccc2)c1=O`
Outgoing: inactive

---

# Tested on: SNB-19
# Assay method text: NCI tumour cell line growth inhibition, 48 h
Calls of active or inactive are those of the source. Rule as the data show it: active = GI50 up to about 1.1 µM and inactive = higher.
Permitted responses: active, inactive

Reference set, count: 8
N=C(N)NS(=O)(=O)c1ccc(NC(=O)c2cccn3c(=O)c4ccccc4nc23)cc1 :: inactive
CC(C)(C)[Si](C)(C)OCCOCn1cc(F)c(=O)[nH]c1=O :: inactive
O=C1NC(=S)NC(=O)C1C(c1ccc(Cl)cc1)C1C(=O)NC(=S)NC1=O.c1ccncc1 :: inactive
O=C(Nc1ccc(Cl)cc1)c1cccc([N+](=O)[O-])c1O :: inactive
C[C@]12CCC3[C@@H](CC[C@@H]4c5nonc5CC[C@]34C)C1CC[C@@H]2O (stereo partly specified) :: inactive
CC(=O)OC1=C(c2ccccc2)S(=O)(=O)c2ccccc21 :: inactive
N#Cc1nc(Cc2cccs2)oc1N :: inactive
O=C1c2ccccc2C(=O)c2[nH]cnc21 :: inactive

Incoming: Please state the recorded outcome for this molecule: `N#Cc1ccc(Sc2ccccc2)cc1C#N`
Outgoing: inactive

Incoming: Another: `O=C1O/C(=C\c2ccccc2)N(c2ccccc2)C1=O`
Outgoing: inactive

Incoming: Another: `CC(=O)O[C@H]1C(=O)[C@@]2(C)[C@H]([C@H](OC(=O)c3ccccc3)[C@]3(O)C[C@H](OC(=O)[C@H](O)[C@@H](NC(=O)c4ccc(N)cc4)c4ccccc4)C(C)=C1C3(C)C)[C@]1(OC(C)=O)CO[C@@H]1C[C@@H]2O`
Outgoing: active

---

Quick reference for GI50 among some compounds
# System: MDA-MB-231
# Assay method text: NCI tumour cell line growth inhibition, 48 h
Calls of active or inactive are those of the source. No stated cut-off is given here; in the data, active = GI50 up to about 1.1 µM and inactive = higher.

Incoming: Quick one: GI50 for O1C2C1C1OC1C1OC1C1OC21 (stereo not given) ?
Outgoing: > 100 µM (inactive)

Incoming: Another: Cc1ccc(/C=C2\CCCC(CN3CCCCC3)C2=O)cc1 (stereo not given)
Outgoing: 1.85 µM (inactive)

Incoming: Another: `N#CC(C#N)=Cc1c[nH]c(=O)[nH]c1=O`
Outgoing: > 100 µM (inactive)

Incoming: Another: C[C@H](C(O)CC(=O)C(C)(C)O)[C@H]1CC[C@@]2(C)[C@@H]3CC[C@H]4C(C)(C)[C@@H](OC5OC(COC6OC(CO)C(O)C(O)C6O)C(O)C(O)C5O)CC[C@]4(C)C3=CC[C@]12C (stereo not given in full)
Outgoing: > 100 µM (inactive)

Incoming: Another: `C=CC1(c2ccc(Cl)c(Cl)c2)OCCO1`
Outgoing: 1.83 µM (inactive)

---

# Test system: NCI-H226
# Assay method text: NCI tumour cell line growth inhibition, 48 h
Active and inactive are the calls of the source. Cut-off read from the data, not from the text of the source: active = GI50 up to about 1.1 µM and inactive = higher.
Permitted responses: 1.0 (active), 0.0 (inactive)

Reference set, count: 2
COc1cc([C@H]2CC(=O)C[C@H](c3cc(OC)c(OC)c(OC)c3)C23C(=O)c2ccccc2C3=O)cc(OC)c1OC :: 0.0
C=CCOc1ccc(C2C(C(=O)OCC)C(=O)CC(C)(O)C2C(=O)OCC)cc1OC (stereo unspecified) :: 0.0

Incoming: Please state the recorded outcome for this compound: Cc1ccc([S+]([O-])C[C@](NC(=O)OCc2ccccc2)(Sc2ccccc2)C(F)F)cc1 (stereo partly specified)
Outgoing: 0.0

Incoming: Another: `COc1ccc(C#CC(=O)O)c(OC)c1`
Outgoing: 0.0

Incoming: Another: `CCOC(=O)C(Cc1cn(S(=O)(=O)c2ccccc2)c2ccccc12)(NC(C)=O)C(=O)OCC`
Outgoing: 0.0

Incoming: Another: `Cc1cccc2oc3c(CC(=O)O)cccc3c(=O)c12`
Outgoing: 0.0

---

# Test system: SF-268
# Assay method text: NCI tumour cell line growth inhibition, 48 h
Activity calls are given as the source filed them. Cut-off read from the data, not from the text of the source: active = GI50 up to about 1.1 µM and inactive = higher.
Permitted responses: true for active, false for inactive

Incoming: Please state the recorded outcome for this compound: `O=C(CCCN1CCC2(CC1)CC(=O)N(N1CCOCC1)C2=O)c1ccccc1`
Outgoing: false

Incoming: Another: C=CC1(C(=O)O)CCC(C(C)(C)C)CC1 (configuration not stated)
Outgoing: false

Incoming: Another: `C=C(C(=O)O)[C@@H]1C[C@@H](OC(C)=O)[C@]2(C)CC/C=C(\C)CCC[C@H](C)[C@H](O)[C@@H]1O2`
Outgoing: false

Incoming: Another: `CCN1C(=O)/C(=C\c2coc3ccccc3c2=O)SC1=S`
Outgoing: false

---

Quick reference for GI50 among some compounds
# System: LOX IMVI
# Assay method text: NCI tumour cell line growth inhibition, 48 h
Activity calls are given as the source filed them. No stated cut-off is given here; in the data, active = GI50 up to about 1.1 µM and inactive = higher.

O=C(NCCCCCCNC(=O)n1cc(F)c(=O)[nH]c1=O)NCCCOCCOCCCNC(=O)C(O)C(O)C(O)C(O)CO (stereo not given) :: > 2.16 µM (inactive)
COc1ccc(-c2nnc3nc4ccccc4n3c2O)cc1 :: > 100 µM (inactive)
COc1ccc(-c2cc(O)c3cc(OC)ccc3n2)cc1 :: > 100 µM (inactive)

Incoming: Which GI50 is reported with LOX IMVI for this entry: CC(C)(C)OC(=O)NCCCCC(NC(=O)c1ccccc1)C(N)=O (stereo not given) ?
Outgoing: > 100 µM (inactive)

Incoming: Another: `CN1C/C(=C\C=C\c2ccccc2)C(=O)/C(=C/C=C/c2ccccc2)C1`
Outgoing: > 100 µM (inactive)

---

Quick reference for GI50 among some molecules
# System: HT-29
# Assay method text: NCI tumour cell line growth inhibition, 48 h
Active and inactive are the calls of the source. Cut-off read from the data, not from the text of the source: active = GI50 up to about 1.1 µM and inactive = higher.

CN1C(c2ccccc2)CC(=O)C(N)C1c1ccccc1 (stereo unspecified) :: 23.9 µM (inactive)
N#CCCN(CCC#N)CCN(CCN(CCC#N)CCC#N)CCN(CCC#N)CCC#N :: > 100 µM (inactive)
CCOc1ccc2ccccc2c1NC1=NCCO1 :: 30.3 µM (inactive)
Cc1cn(C2CC(O)C(COP(=O)(O)OC3CC(n4c[n+]([BH2-]C#N)c5c(=O)[nH]c(N)nc54)OC3CO)O2)c(=O)[nH]c1=O (stereo unspecified) :: > 100 µM (inactive)
COc1ccc(-c2cc(=O)c3ccc(O)cc3o2)cc1OC :: 41.8 µM (inactive)
CCOC(=O)NC(=O)c1cn(CCNCCO)c(=O)[nH]c1=O :: > 100 µM (inactive)

Incoming: Quick one: GI50 for `Cc1ccc(NCC(=O)N2CC(=O)Nc3ccccc32)c(C)c1` ?
Outgoing: > 100 µM (inactive)

Incoming: Another: `N#Cc1ncn(CCO)c1N`
Outgoing: > 100 µM (inactive)

Incoming: Another: `c1nc2nc[nH]c(SSc3[nH]cnc4ncnc3-4)c-2n1`
Outgoing: 1.19 µM (inactive)

Incoming: Another: `CC(C)(C)OC/C=C1\C(=O)O[C@H]2C[C@@H](O[Si](C)(C)C(C)(C)C)C[C@@H]12`
Outgoing: 73.6 µM (inactive)

Incoming: Another: COc1ccc(CC2c3c(cc(OC)c(OC)c3OC)CCN2C)cc1OC (stereo unspecified)
Outgoing: > 100 µM (inactive)
